Experiment: cells
Settings: Homo sapiens, L02, 24 h
Description: Antiproliferative activity against human LO2 cells after 24 hrs by MTT assay
Please assign no whenever IC50 is at or above 200 µM, and yes whenever it is below.

>  <Compound>
NS(=O)(=O)c1ccc(-n2nc(C(=O)N/N=C/c3c(Cl)c4ccccc4oc3=O)cc2-c2ccc(O)cc2)cc1

>  <Group>
yes

$$$$
>  <Compound>
Cc1ccc(-c2cc(C(F)(F)F)nn2-c2ccc(S(N)(=O)=O)cc2)cc1 [CELECOXIB]

>  <Group>
yes

$$$$
>  <Compound>
COc1ccc(-c2cc(C(=O)N/N=C/c3c(Cl)c4ccccc4oc3=O)nn2-c2ccc(S(N)(=O)=O)cc2)cc1OC

>  <Group>
yes

$$$$
>  <Compound>
NS(=O)(=O)c1ccc(-n2nc(C(=O)N/N=C/c3c(Cl)c4ccccc4oc3=O)cc2-c2ccccc2F)cc1

>  <Group>
yes

$$$$
>  <Compound>
NS(=O)(=O)c1ccc(-n2nc(C(=O)N/N=C/c3c(Cl)c4ccccc4oc3=O)cc2-c2ccc(F)cc2)cc1

>  <Group>
yes

$$$$
>  <Compound>
Cc1ccc(-c2cc(C(=O)N/N=C/c3c(Cl)c4ccccc4oc3=O)nn2-c2ccc(S(N)(=O)=O)cc2)cc1C

>  <Group>
no

$$$$
>  <Compound>
COc1cccc(-c2cc(C(=O)N/N=C/c3c(Cl)c4ccccc4oc3=O)nn2-c2ccc(S(N)(=O)=O)cc2)c1

>  <Group>
yes

$$$$
>  <Compound>
NS(=O)(=O)c1ccc(-n2nc(C(=O)N/N=C/c3c(Cl)c4ccccc4oc3=O)cc2-c2ccccc2O)cc1

>  <Group>
yes

$$$$
>  <Compound>
NS(=O)(=O)c1ccc(-n2nc(C(=O)N/N=C/c3c(Cl)c4ccccc4oc3=O)cc2-c2cccc(Cl)c2)cc1

>  <Group>
yes

$$$$
>  <Compound>
NS(=O)(=O)c1ccc(-n2nc(C(=O)N/N=C/c3c(Cl)c4ccccc4oc3=O)cc2-c2ccccc2)cc1

>  <Group>
yes

$$$$
>  <Compound>
COc1ccc(-c2cc(C(=O)N/N=C/c3c(Cl)c4ccccc4oc3=O)nn2-c2ccc(S(N)(=O)=O)cc2)cc1

>  <Group>
no

$$$$
>  <Compound>
NS(=O)(=O)c1ccc(-n2nc(C(=O)N/N=C/c3c(Cl)c4ccccc4oc3=O)cc2-c2ccccc2Cl)cc1

>  <Group>
no

$$$$
>  <Compound>
NS(=O)(=O)c1ccc(-n2nc(C(=O)N/N=C/c3c(Cl)c4ccccc4oc3=O)cc2-c2ccc([N+](=O)[O-])cc2)cc1

>  <Group>
yes

$$$$
>  <Compound>
NS(=O)(=O)c1ccc(-n2nc(C(=O)N/N=C/c3c(Cl)c4ccccc4oc3=O)cc2-c2ccc(Cl)c(Cl)c2)cc1

>  <Group>
no

$$$$
>  <Compound>
NS(=O)(=O)c1ccc(-n2nc(C(=O)N/N=C/c3c(Cl)c4ccccc4oc3=O)cc2-c2ccc(C(F)(F)F)cc2)cc1

>  <Group>
no

$$$$
>  <Compound>
COc1cc(-c2cc(C(=O)N/N=C/c3c(Cl)c4ccccc4oc3=O)nn2-c2ccc(S(N)(=O)=O)cc2)cc(OC)c1OC

>  <Group>
yes

$$$$
>  <Compound>
Cc1ccc(-c2cc(C(=O)N/N=C/c3c(Cl)c4ccccc4oc3=O)nn2-c2ccc(S(N)(=O)=O)cc2)cc1

>  <Group>
no

$$$$
